study-target: REC12 (P-cadherin monomer mutant) (Homo sapiens, UniProt P22223, INS0R)
Construct: EC12 (EC1-EC2, residues 1-241) with Arg inserted at N terminus; biotinylated for chip capture; E. coli Rosetta2(DE3), SUMO tag cut with Ulp1; monomer
Sequence (P22223 107-348, stated change not applied): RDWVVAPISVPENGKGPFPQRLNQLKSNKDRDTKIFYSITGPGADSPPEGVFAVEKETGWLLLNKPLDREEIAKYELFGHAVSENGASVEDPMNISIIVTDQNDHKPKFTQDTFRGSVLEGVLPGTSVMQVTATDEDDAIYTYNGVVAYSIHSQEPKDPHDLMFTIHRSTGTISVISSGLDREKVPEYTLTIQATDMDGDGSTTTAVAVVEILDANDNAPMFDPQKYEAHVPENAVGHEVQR
assay-summary: SPR, Scatchard analysis of equilibrium responses

| chem-smiles | study-target | Kd |
| --- | --- | --- |
| Cc1[nH]c2ccc(Cl)cc2c1CCN | REC12 (P-cadherin monomer mutant) (Homo sapiens, UniProt P22223, INS0R) | ~916 µM |

Source of measurements: paper PMC8423723
